experimental-target: hCA II (Homo sapiens)
Construct: made in house
assay: stopped flow CO2 hydrase assay, hCA II
Type: biochemical
conditions: mean from 3 assays, errors ± 5%–10%
readout: Ki (nM)
One number for each entry, in nM.

Form entry - test system: hCA II (Homo sapiens); read-out: Ki; compound: C#CCN(CC#C)CCc1ccc(S(N)(=O)=O)cc1
5.8

----------
Give measured mean dilation as percentage of the maximum contraction induced by U-46619 for each item. Keep answers brief.
Test system: porcine retinal arteries
assay: small vessel myography of wall tension in isolated retinal artery segments pre-contracted with U-46619
Type: cell-based
conditions: single dose of 10^−3 M; mean ± SEM

| compound | value-reported |
| --- | --- |
| C#CCOc1ccc2oc(=O)ccc2c1 | 98.8% ± 6.1% |
| C#CCN(CC#C)CCc1ccc(S(N)(=O)=O)cc1 | 102.2% ± 3.7% |
| C#CCOc1ccc2ccc(=O)oc2c1 | 116.5% ± 1.7% |
| C#CCNc1ccc2c(C)cc(=O)oc2c1 | 99.5% ± 1.2% |
| NS(=O)(=O)c1nnc(NS(=O)(=O)c2ccccc2)s1 [Compound 1, Benzolamide, reference compound] | 78.4% ± 8.5% |

Give the measured mean dilation as percentage of the maximum contraction induced by U-46619 of CCN[C@H]1C[C@H](C)S(=O)(=O)c2sc(S(N)(=O)=O)cc21 [Compound 2, Dorzolamide, reference compound] .
69.7% ± 5.7%

----------
experimental-target: hCA XII (Homo sapiens, UniProt O43570)
Sequence (O43570 25-354): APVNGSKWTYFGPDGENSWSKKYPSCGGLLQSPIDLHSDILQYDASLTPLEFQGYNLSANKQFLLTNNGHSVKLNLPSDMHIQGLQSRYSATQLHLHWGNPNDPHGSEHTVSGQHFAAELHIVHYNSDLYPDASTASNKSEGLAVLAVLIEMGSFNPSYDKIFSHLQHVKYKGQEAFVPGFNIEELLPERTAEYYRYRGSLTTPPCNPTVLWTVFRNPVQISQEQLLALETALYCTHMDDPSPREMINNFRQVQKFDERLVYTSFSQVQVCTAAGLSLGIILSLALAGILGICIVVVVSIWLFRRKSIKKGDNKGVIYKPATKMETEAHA
readout: Ki (nM)
Answers are plain numbers, in nM.

For the compound C#CCNc1ccc2c(C)cc(=O)oc2c1 , what Ki is on record?
44.5

----------
Test system: porcine retinal arteries
assay: small vessel myography of wall tension in isolated retinal artery segments pre-contracted with U-46619
Type: cell-based
conditions: single dose of 10^−3 M, one vessel, pre-contracted with 10^−6 M U-46619
For each entry below, report its vasodilation in a single representative experiment, percent of maximum contraction value.

| compound | value-reported |
| --- | --- |
| CCN[C@H]1C[C@H](C)S(=O)(=O)c2sc(S(N)(=O)=O)cc21 [Compound 2, Dorzolamide, reference compound] | 33% |

Batch request: vasodilation in a single representative experiment, percent of maximum contraction per item, same order as input.
1. C#CCN(CC#C)CCc1ccc(S(N)(=O)=O)cc1
2. C#CCNc1ccc2c(C)cc(=O)oc2c1
3. C#CCOc1ccc2oc(=O)ccc2c1
4. C#CCOc1ccc2ccc(=O)oc2c1

1. 91%
2. 96.8%
3. 101%
4. 140%

----------
experimental-target: hCA I (Homo sapiens)
Construct: made in house
Sequence (P00915 whole entry): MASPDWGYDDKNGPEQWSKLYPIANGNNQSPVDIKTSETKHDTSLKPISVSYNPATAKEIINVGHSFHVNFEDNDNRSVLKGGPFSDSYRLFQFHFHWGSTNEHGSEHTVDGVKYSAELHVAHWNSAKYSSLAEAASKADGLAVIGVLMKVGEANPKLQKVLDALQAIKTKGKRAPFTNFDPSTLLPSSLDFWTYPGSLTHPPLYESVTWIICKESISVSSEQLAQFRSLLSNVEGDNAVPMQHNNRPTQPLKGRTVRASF
assay: stopped flow CO2 hydrase assay, hCA I
Type: biochemical
conditions: mean from 3 assays, errors ± 5%–10%
readout: pKi
One number for each entry, as −log10 of the molar value.

What pKi value was documented for this molecule, C#CCN(CC#C)CCc1ccc(S(N)(=O)=O)cc1 ?
5.40

----------
Hi there, I'd appreciate the recorded EC50 for every entry that follows.
Tested on: porcine retinal arteries
assay: small vessel myography of wall tension in isolated retinal artery segments pre-contracted with U-46619
Format: cell-based
conditions: Sus scrofa; best fit to concentration-response curves; arteries pre-contracted with 10^−6 M U-46619; read-out: mean EC50 of vasodilation
Numbers only, in µM.

| molecule | experimental-target | EC50 [µM] |
| --- | --- | --- |
| C#CCOc1ccc2oc(=O)ccc2c1 [Compound 4] | porcine retinal arteries | 134 |
| C#CCN(CC#C)CCc1ccc(S(N)(=O)=O)cc1 [Compound 3] | porcine retinal arteries | 188 |
| C#CCNc1ccc2c(C)cc(=O)oc2c1 [Compound 6] | porcine retinal arteries | 101 |
| C#CCOc1ccc2ccc(=O)oc2c1 [Compound 5] | porcine retinal arteries | 4.12 |

Return reported EC50; argument: NS(=O)(=O)c1nnc(NS(=O)(=O)c2ccccc2)s1 [Compound 1, Benzolamide, reference compound]
84.3

----------
experimental-target: hCA IV (Homo sapiens)
Sequence (P22748 19-312): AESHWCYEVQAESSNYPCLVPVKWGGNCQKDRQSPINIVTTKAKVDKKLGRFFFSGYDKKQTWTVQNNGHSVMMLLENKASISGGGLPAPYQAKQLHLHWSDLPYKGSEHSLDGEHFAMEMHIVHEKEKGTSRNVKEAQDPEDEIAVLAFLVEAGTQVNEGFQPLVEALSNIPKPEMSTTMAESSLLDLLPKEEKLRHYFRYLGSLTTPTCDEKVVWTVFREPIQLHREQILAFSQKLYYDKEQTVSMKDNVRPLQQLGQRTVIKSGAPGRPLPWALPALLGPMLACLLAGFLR
readout: pKi
Give bare numbers, as −log10 of the molar value.

Name the recorded pKi for NS(=O)(=O)c1nnc(NS(=O)(=O)c2ccccc2)s1 [Compound 1, Benzolamide, reference compound] .
7.92

----------
Assay system UniProtKB Q16790; read-out recorded as Ki.
Give bare numbers, in nM.

| sample-smiles | experimental-target | Ki, nM |
| --- | --- | --- |
| C#CCN(CC#C)CCc1ccc(S(N)(=O)=O)cc1 | UniProtKB Q16790 | 55.7 |

Field request: Ki | item: C#CCNc1ccc2c(C)cc(=O)oc2c1
474

This collection of values is drawn from paper PMC6387369.
